Record form. Attribute: inhibition. Fill in for each entry.
TEST SYSTEM: Acyl-protein thioesterase 1 (Mus musculus) (UniProt P97823)
MEASUREMENT DESCRIPTION: inhibitor selectivity across mouse and human LYPLA2, LYPLA1 – cell lysate, gel-based ABPP, FP-Rh fluorescence, mouse brain membrane proteome, selectivity assay for LYPLA2 selective inhibitor project, late-stage follow-up (AID 652030)
TEST SETTINGS: emLYPLA1, at 10 µM, active compounds read high
Numbers only, in %.

COMPOUND	inhibition / %
COc1ccc(N2CCN(C(=O)c3cc4c(s3)-c3ccccc3S(=O)(=O)C4)CC2)cc1	25

Items follow; give inhibition for each.
1. COc1ccc(N2CCN(C(=O)c3ccc(C(C)(C)C)cc3)CC2)cc1
2. COc1ccc(N2CCN(C(=O)C3CCC(Cn4c(=S)[nH]c5ccccc5c4=O)CC3)CC2)cc1 (stereo not given)

1: 16; 2: 16

Give me inhibition for each of these compounds, listed below.
1. O=C(O)c1ccc(CN2C(=O)c3ccc(Oc4ccc([N+](=O)[O-])cc4)cc3C2=O)cc1
2. O=C(Cn1cnc2ccccc2c1=O)c1ccc(OC(F)F)cc1

1. 6
2. 5
